# Assayed System: Phosphodiesterase 3 (Homo sapiens, UniProt Q14432+Q13370)
# Experiment Summary: Inhibition of human platelet c-AMP phosphodiesterase PDE 3
Experimental Endpoint: IC50 (nM)

See these solved cases before continuing.
| Molecule | Assayed System | Unit Of Measure | IC50 |
| --- | --- | --- | --- |
| O=C(CCCOc1ccc2[nH]c3nc(O)nc-3cc2c1)N1CCNCC1 | Phosphodiesterase 3 (Homo sapiens, UniProt Q14432+Q13370) | nM | 40 |
| CCCC(CCC)CN1CCN(C(=O)CCCOc2ccc3[nH]c4nc(O)nc-4cc3c2)CC1 | Phosphodiesterase 3 (Homo sapiens, UniProt Q14432+Q13370) | nM | 0.4 |
| CC(C)(C)OC(=O)N1CCN(C(=O)CCCOc2ccc3[nH]c4nc(O)nc-4cc3c2)CC1 | Phosphodiesterase 3 (Homo sapiens, UniProt Q14432+Q13370) | nM | 0.3 |

1: O=C(CCCOc1ccc2[nH]c3nc(O)nc-3cc2c1)N1CCN(CC2CCCCO2)CC1 (stereo unspecified)
2: O=C(CCCOc1ccc2[nH]c3nc(O)nc-3cc2c1)NCCN1CCCCC1
stdin: Larger number for IC50: 1 , or 2 ? Give the label of your selection.
stdout: 2

---

Recorded solubility values for a group of compounds are listed next.
# Experiment Summary: Aqueous solubility
# Assay type: physicochemical
# Details: water; read-out: S

| Molecular String | solubility |
| --- | --- |
| CN1CCN(C(=O)CCCOc2ccc3[nH]c4nc(O)nc-4cc3c2)CC1 | > 20000 µg/mL |
| O=C(CCCOc1ccc2[nH]c3nc(O)nc-3cc2c1)N1CCN(Cc2ccccc2)CC1 | > 10000 µg/mL |
| O=C(CCCOc1ccc2[nH]c3nc(O)nc-3cc2c1)NC1CCN(Cc2ccccc2)CC1 | > 20000 µg/mL |
| COC(=O)C1CCN(c2ccc3[nH]c4nc(O)nc-4cc3c2)CC1 | < 10000 µg/mL |

Now for another entry.
stdin: Reported solubility, compound `CN(C(=O)C1CCN(c2ccc3[nH]c4nc(O)nc-4cc3c2)CC1)C1CCCCC1` : ____
stdout: < 10000 µg/mL

---

# Assayed System: Phosphodiesterase 3 (Homo sapiens, UniProt Q14432+Q13370)
# Experiment Summary: Inhibition of human platelet c-AMP phosphodiesterase PDE 3
Experimental Endpoint: IC50 (nM)

See these solved cases before continuing.
| Molecule | Result Value |
| --- | --- |
| Cn1c(O)nc2nc3ccc(OCCCC(=O)N4CCN(Cc5ccccc5)CC4)cc3cc21 | 30 |
| O=C(CCCOc1ccc2[nH]c3nc(O)nc-3cc2c1)N1CCN(Cc2cccs2)CC1 | 0.7 |
| O=C(CCCOc1ccc2[nH]c3nc(O)nc-3cc2c1)N1CCN(C2CCCCCC2)CC1 | 0.9 |
| O=C(CCCOc1ccc2[nH]c3nc(O)nc-3cc2c1)N1CCC(N2CCCCC2)CC1 | 5 |
| O=C(CCCOc1ccc2[nH]c3nc(O)nc-3cc2c1)N1CCN(CC2CCCC2)CC1 | 0.5 |

I: O=C(c1ccccc1)N1CCN(c2ccc3[nH]c4nc(O)nc-4cc3c2)CC1
II: O=C(CCCOc1ccc2[nH]c3nc(O)nc-3cc2c1)N1CCN(Cc2ccccc2)CC1
stdin: Larger number for IC50: I , or II ? Give the label of your selection.
stdout: I

a: CN1CCCC1CCNC(=O)CCCOc1ccc2[nH]c3nc(O)nc-3cc2c1 (stereo not drawn)
b: CCC(CC)CN1CCN(C(=O)CCCOc2ccc3[nH]c4nc(O)nc-4cc3c2)CC1
stdin: Would you kindly point out which of a and b has the smaller IC50 figure? Give the label of your selection.
stdout: b
(b: 1 nM, a: 20 nM)

P: CN1CCN(C(=O)CCCOc2ccc3[nH]c4nc(O)nc-4cc3c2)CC1
Q: CCOC(=O)CN1CCN(C(=O)CCCOc2ccc3[nH]c4nc(O)nc-4cc3c2)CC1
R: CCOC(=O)N1CCN(c2ccc3[nH]c4nc(O)nc-4cc3c2)CC1
S: O=C(CCCCOc1ccc2[nH]c3nc(O)nc-3cc2c1)N1CCN(CC2CCCCC2)CC1
stdin: With regard to IC50, arrange the entries in ascending order, please. Response format: the labels, sorted as the prompt asks.
stdout: S, Q, P, R

---

# Species on record: Homo sapiens
# Experiment Summary: Inhibition of ADP induced aggregation of human platelets after 15 min of incubation of the drug with PRP prior to the addition of ADP
# Type: functional
# Details: 0.25 h
Experimental Endpoint: IC50 (nM)
# number only, unit nM dropped from output

stdin: Reported IC50, compound `O=C(CCCOc1ccc2[nH]c3nc(O)nc-3cc2c1)N1CCN(CC2CCCCC2)CC1` : ____
stdout: 100

---

# Experiment Summary: Solubility in 0.25 N HCl solution
# Type: physicochemical
# Details: read-out: S
Experimental Endpoint: solubility

stdin: Reported solubility, compound CN1CCCC1CCNC(=O)CCCOc1ccc2[nH]c3nc(O)nc-3cc2c1 (stereo unspecified) : ____
stdout: > 10000 µg/mL

---

Recorded solubility values for a group of compounds are listed next.
# Experiment Summary: Aqueous solubility
# Type: physicochemical
# Details: water; read-out: S

| Molecular String | Experimental Endpoint | Result Value |
| --- | --- | --- |
| O=C(CCCOc1ccc2[nH]c3nc(O)nc-3cc2c1)N1CCN(CC2CCCC2)CC1 | solubility | > 10000 µg/mL |
| O=C(c1ccccc1)N1CCN(c2ccc3[nH]c4nc(O)nc-4cc3c2)CC1 | solubility | < 10000 µg/mL |
| O=C(CCCOc1ccc2[nH]c3nc(O)nc-3cc2c1)N1CCN(Cc2ccc(Cl)cc2)CC1 | solubility | < 10000 µg/mL |
| CCOC(=O)CN1CCN(C(=O)CCCOc2ccc3[nH]c4nc(O)nc-4cc3c2)CC1 | solubility | > 10000 µg/mL |

Now for another entry.
stdin: Reported solubility, compound `COc1ccc(CN2CCN(C(=O)CCCOc3ccc4[nH]c5nc(O)nc-5cc4c3)CC2)cc1` : ____
stdout: > 10000 µg/mL

---

Recorded solubility values for a group of compounds are listed next.
# Experiment Summary: Aqueous solubility
# Assay type: physicochemical
# Details: water; read-out: S

| Compound | solubility |
| --- | --- |
| CC(C)(C)OC(=O)N1CCN(C(=O)CCCOc2ccc3[nH]c4nc(O)nc-4cc3c2)CC1 | < 10000 µg/mL |
| O=C(CCCOc1ccc2[nH]c3nc(O)nc-3cc2c1)N1CCN(CCc2ccccc2C(F)(F)F)CC1 | < 10000 µg/mL |
| O=C(CCCOc1ccc2[nH]c3nc(O)nc-3cc2c1)N1CCN(Cc2ccsc2)CC1 | > 10000 µg/mL |
| CN(CCc1ccccn1)C(=O)CCCOc1ccc2[nH]c3nc(O)nc-3cc2c1 | > 10000 µg/mL |
| O=C(CCCOc1ccc2[nH]c3nc(O)nc-3cc2c1)N1CCN(C2CCCCCC2)CC1 | > 10000 µg/mL |

stdin: Reported solubility, compound O=C(CCCOc1ccc2[nH]c3nc(O)nc-3cc2c1)NC1CN2CCC1CC2 (stereo not given) : ____
stdout: > 10000 µg/mL

stdin: Next up: `O=C1CN2Cc3cc(OCCCC(=O)N4CCN(Cc5ccccc5)CC4)ccc3N=C2N1`
stdout: > 5000 µg/mL

stdin: Next up: `Oc1nc2cc3cc(N4CCCCC4)ccc3[nH]c-2n1`
stdout: > 10000 µg/mL

stdin: Next up: `O=C(CCCOc1ccc2[nH]c3nc(O)nc-3cc2c1)NCCN1CCCCC1`
stdout: > 20000 µg/mL

stdin: Next up: `O=C(CCCOc1ccc2[nH]c3nc(O)nc-3cc2c1)N1CCN(c2ccccc2)CC1`
stdout: < 10000 µg/mL

---

Recorded solubility values for a group of molecules are listed next.
# Experiment Summary: Aqueous solubility
# Type: physicochemical
# Details: water; read-out: S

| Molecule | solubility |
| --- | --- |
| O=C(CCCOc1ccc2[nH]c3nc(O)nc-3cc2c1)N1CCN(CCC2CCCCC2)CC1 | < 10000 µg/mL |
| Oc1nc2cc3cc(N4CCN(c5ccccc5)CC4)ccc3[nH]c-2n1 | < 10000 µg/mL |
| O=C(CCCCOc1ccc2[nH]c3nc(O)nc-3cc2c1)N1CCN(CC2CCCCC2)CC1 | > 10000 µg/mL |
| O=C(CCCOc1ccc2[nH]c3nc(O)nc-3cc2c1)N1CCN(CCc2ccccc2)CC1 | < 10000 µg/mL |
| O=C(CCCOc1ccc2[nH]c3nc(O)nc-3cc2c1)N1CCN(Cc2cccc(C(F)(F)F)c2)CC1 | 2000 µg/mL |
| CC(C)CN1CCN(C(=O)CCCOc2ccc3[nH]c4nc(O)nc-4cc3c2)CC1 | > 10000 µg/mL |

stdin: Reported solubility, molecule O=C(CCCOc1ccc2[nH]c3nc(O)nc-3cc2c1)N1CCN(CC2CCCCO2)CC1 (stereo not given) : ____
stdout: > 10000 µg/mL
